Test system: KM12 colon
Experiment: NCI-60 one-dose screen, 48 h
Conditions: 10 µM unless noted
About 83,000 compounds went through this panel and 20% of them were active in at least one assay; those are over-represented in the sample as a whole. Active and inactive are the calls of the source. Rule for the calls: active = growth percent below 10; inactive = the rest.
Parameter call: string, one of y for active, n for inactive

Would you mind telling me which call this test gave CNC(=O)c1cc(Oc2ccc3nc(Nc4cc(Cl)cc(Cl)c4)ccc3c2)ccn1 ?
n

I would be grateful if you could indicate the recorded call for Oc1ccccc1-c1nc2ccccn2c1NCCN1CCOCC1 .
n

Recorded test outcome, item Cc1ccc(/C=C(\C#N)n2nnc3cc(Cl)c(Cl)cc32)cc1
y

Check the results log: what was the call for CN1CCN(CCCOc2ccc3nc(Nc4cc(Cl)cc(Cl)c4)ccc3c2)CC1 ?
y

For this molecule, state the assay outcome: c1ccc([P+](CCCc2n(Cc3ccc4ccccc4c3)c3ccccc3[n+]2Cc2ccc3ccccc3c2)(c2ccccc2)c2ccccc2)cc1
n

GET /call?item= O=C(CCc1nc(-c2cccc(Cl)c2)no1)Nc1ccccn1 returns the recorded outcome of this test.
n

Assay result, entry CN(C)CCn1cc(-c2ccc3c(Nc4ccc(CC(=O)Nc5cccc(F)c5)cc4)ncnc3c2)cn1 — outcome?
y

In this assay, the call recorded for COc1ccc(C2=NC(=O)NC2c2ccc(OC)cc2)cc1 (centres undefined) was what?
n

Recorded test call requested for COC(=O)CCCNC(=O)C(=O)c1c(O)c(O)c(C(C)C)c2cc(C)c(-c3c(C)cc4c(C(C)C)c(O)c(O)c(C(=O)C(=O)NCCCC(=O)OC)c4c3O)c(O)c12
y
